# method_notes: in vivo
# condition_context: both, Sprague-Dawley, rat, po, 30 mg/kg
observation_type: Cmax

- compound: "Cc1ccc(COC(=O)N2CC[C@H](CNc3ncccn3)[C@H](F)C2)cc1 [Form II]"
  result: "~14 µM"

###

# method_notes: Single-dose pharmacokinetics in monkeys (oral and IV)
# Format: in vivo
# condition_context: male, rhesus monkey, plasma, po, 15 mg/kg, PO 15 mg/kg, mean (S.D.)

- compound: "Cc1ccc(COC(=O)N2CC[C@H](CNc3ncccn3)[C@H](F)C2)cc1 [Form II]"
  Tmax: "~2 h"

###

# method_notes: Repeated once-daily oral dosing with food (Days 1-7) in healthy subjects, PK and PD
# Format: in vivo, human
# condition_context: female, human, plasma, oral, females, all doses pooled, Day 1; read-out: AUClast, Mean (SD)
observation_type: AUC(0-t) (ng·h/mL)

- compound: "Cc1ccc(COC(=O)N2CC[C@H](CNc3ncccn3)[C@H](F)C2)cc1 [Form II]"
  unit_spec: "ng·h/mL"
  measured_number: 2310

Origin of the recorded values: patent US12410153B2
